target: Transient receptor potential cation channel subfamily V member 1 (Homo sapiens); assay: Antagonist activity against capsaicin-activated human VR1 by FLIPR assay
Sequence (Q8NER1 whole entry): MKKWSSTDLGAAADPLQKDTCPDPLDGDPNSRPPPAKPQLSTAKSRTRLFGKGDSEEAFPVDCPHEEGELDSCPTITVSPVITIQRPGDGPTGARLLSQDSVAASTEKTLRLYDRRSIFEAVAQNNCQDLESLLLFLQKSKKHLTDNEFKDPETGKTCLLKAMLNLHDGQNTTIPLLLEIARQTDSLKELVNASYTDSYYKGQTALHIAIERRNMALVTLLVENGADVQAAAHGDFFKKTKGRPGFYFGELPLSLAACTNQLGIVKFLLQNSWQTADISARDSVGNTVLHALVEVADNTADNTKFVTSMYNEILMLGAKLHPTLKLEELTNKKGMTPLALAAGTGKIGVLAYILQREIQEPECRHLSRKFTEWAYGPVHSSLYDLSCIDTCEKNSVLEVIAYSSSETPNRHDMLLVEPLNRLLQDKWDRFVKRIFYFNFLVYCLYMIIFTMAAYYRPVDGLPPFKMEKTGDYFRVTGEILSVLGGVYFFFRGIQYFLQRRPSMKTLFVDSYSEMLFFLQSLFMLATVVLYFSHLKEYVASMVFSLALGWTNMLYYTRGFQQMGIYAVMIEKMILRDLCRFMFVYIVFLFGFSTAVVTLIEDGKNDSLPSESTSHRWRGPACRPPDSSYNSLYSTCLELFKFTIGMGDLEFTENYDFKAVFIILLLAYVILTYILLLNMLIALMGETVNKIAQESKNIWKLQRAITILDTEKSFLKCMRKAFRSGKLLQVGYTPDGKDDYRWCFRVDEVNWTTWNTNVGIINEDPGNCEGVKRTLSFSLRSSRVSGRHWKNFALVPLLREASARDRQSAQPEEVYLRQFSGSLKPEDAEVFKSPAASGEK
Parameter: IC50 (nM)

Sample records with IC50:
>>> recorded_measurement("O=C(Nc1ccc(C(F)(F)F)cc1)c1ncc(-c2ncccc2C(F)(F)F)cn1")
42
>>> recorded_measurement("O=C(Nc1ccc(C(F)(F)F)cc1)c1ccc(-c2ncccc2C(F)(F)F)nc1")
60
>>> recorded_measurement("CN(C)Cc1cccnc1-c1ccc(C(=O)Nc2ccc(C(C)(C)C)cc2)cc1")
746
>>> recorded_measurement("CC(C)(C)c1ccc(NC(=O)c2ccc(-c3ncccc3-c3nnco3)cc2)cc1")
91

a. CCCOc1cccnc1-c1ccc(C(=O)Nc2ccc(C(C)(C)C)cc2)cc1
b. CC(C)(C)c1ccc(NC(=O)c2ccc(-c3ncccc3NC3CCCC3)cc2)cc1
Parameter check: reported IC50 is higher for which label, a or b ? Answer by stating the label of the chosen item.
b
(b: 190 nM, a: 62 nM)

###

target: UniProt:O35433; assay: Antagonist activity against low pH(5.0-5.5)-activated rat VR1
Sequence (O35433 whole entry): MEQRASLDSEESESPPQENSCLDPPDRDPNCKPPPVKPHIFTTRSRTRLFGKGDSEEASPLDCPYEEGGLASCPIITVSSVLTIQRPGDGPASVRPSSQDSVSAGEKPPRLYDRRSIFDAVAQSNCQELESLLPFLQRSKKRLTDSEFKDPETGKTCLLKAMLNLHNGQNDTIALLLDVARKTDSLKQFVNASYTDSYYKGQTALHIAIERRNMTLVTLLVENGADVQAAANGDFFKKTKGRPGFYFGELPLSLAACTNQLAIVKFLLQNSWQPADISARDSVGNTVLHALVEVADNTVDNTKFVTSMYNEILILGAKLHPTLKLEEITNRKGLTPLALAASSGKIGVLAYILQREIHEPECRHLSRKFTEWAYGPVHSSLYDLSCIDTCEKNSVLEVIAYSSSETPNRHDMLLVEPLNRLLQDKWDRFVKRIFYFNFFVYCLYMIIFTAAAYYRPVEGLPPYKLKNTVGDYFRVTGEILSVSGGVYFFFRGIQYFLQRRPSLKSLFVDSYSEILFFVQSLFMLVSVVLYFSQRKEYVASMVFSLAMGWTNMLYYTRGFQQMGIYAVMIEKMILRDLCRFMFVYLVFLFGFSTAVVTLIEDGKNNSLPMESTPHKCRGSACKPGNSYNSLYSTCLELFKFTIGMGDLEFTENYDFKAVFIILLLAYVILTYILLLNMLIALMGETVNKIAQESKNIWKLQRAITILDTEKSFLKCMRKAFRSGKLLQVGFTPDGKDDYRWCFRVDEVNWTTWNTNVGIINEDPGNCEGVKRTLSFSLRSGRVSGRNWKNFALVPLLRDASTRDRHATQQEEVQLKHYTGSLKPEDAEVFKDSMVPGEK
pIC50: −log10 of the molar value.
Parameter: pIC50

Sample records with pIC50:
>>> recorded_measurement("CC(C)(C)c1ccc(NC(=O)c2ccc(-c3ncccc3NO)cc2)cc1")
8.30
>>> recorded_measurement("COc1cc(-c2ncccc2C(F)(F)F)ccc1C(=O)Nc1ccc(C(F)(F)F)cc1")
5.98
>>> recorded_measurement("Cc1cccnc1-c1ccc(C(=O)Nc2ccc(OC(F)(F)F)cc2)cc1")
6.05
>>> recorded_measurement("Cc1cccnc1-c1ccc(C(=O)Nc2ccc(Br)cc2)cc1")
6.44
>>> recorded_measurement("CC(C)(C)c1ccc(NC(=O)c2ccc(-c3ncccc3NC3CCCC3)cc2)cc1")
7.36

P. CS(=O)(=O)Nc1cc(-c2ncccc2C(F)(F)F)ccc1C(=O)Nc1ccc(C(F)(F)F)cc1
Q. CC(C)(C)c1ccc(NC(=O)c2ccc(-c3ccccn3)cc2)cc1
Parameter check: reported pIC50 is higher for which label, P or Q ? Answer by stating the label of the chosen item.
Q
(Q: 8.10, P: 6.14)

###

assay: Volume of distribution in rat at 3 mg/kg, iv; assay type: ADME, organism-based; parameters: dose 3 mg/kg, route intravenous; settings: in vivo, read-out: Vdss
Parameter: Vd (L/kg)

>>> recorded_measurement("FC(F)(F)c1ccc(Nc2ncnc3cc(-c4ncccc4C(F)(F)F)ccc23)cc1")
12.5
>>> recorded_measurement("C[C@@H]1CN(c2ncccc2C(F)(F)F)CCN1C(=O)Nc1ccc(C(F)(F)F)cc1")
12

###

test: Half life in rat at 3 mg/kg, iv; type: ADME, organism-based; set-up: dose 3 mg/kg, route intravenous; conditions: in vivo
Parameter: half-life (h)

>>> recorded_measurement("C[C@@H]1CN(c2ncccc2C(F)(F)F)CCN1C(=O)Nc1ccc(C(F)(F)F)cc1")
7.2
>>> recorded_measurement("FC(F)(F)c1ccc(Nc2ncnc3cc(-c4ncccc4C(F)(F)F)ccc23)cc1")
8.1

###

assay: Aqueous solubility at pH 7.4 by HTsol assay; format: physicochemical; conditions: buffer
Parameter: solubility (µg/mL)

Sample records with solubility:
>>> recorded_measurement("CCS(=O)(=O)Nc1cccnc1-c1ccc(C(=O)Nc2ccc(C(C)(C)C)cc2)cc1")
1
>>> recorded_measurement("CN(C)Cc1cccnc1-c1ccc(C(=O)Nc2ccc(C(C)(C)C)cc2)cc1")
50
>>> recorded_measurement("CN(c1cccnc1-c1ccc(C(=O)Nc2ccc(C(C)(C)C)cc2)cc1)S(C)(=O)=O")
1
>>> recorded_measurement("CC(C)(C)c1ccc(NC(=O)c2ccc(-c3ncccc3N(S(C)(=O)=O)S(C)(=O)=O)cc2)cc1")
1

A. CC(C)(C)c1ccc(NC(=O)c2ccc(-c3ncccc3NS(=O)(=O)c3ccccc3)cc2)cc1
B. CC(C)(C)c1ccc(NC(=O)c2ccc(-c3ncccc3C(=O)O)cc2)cc1
Kindly compare A with B and tell me which has the lower solubility figure. Answer by stating the label of the chosen item.
A
(A: 1 µg/mL, B: 104 µg/mL)
